Target: AKT2 (Homo sapiens, UniProt P31751)
Construct: expressed in transfected cells; host or cells: HEK293
Sequence (P31751 whole entry): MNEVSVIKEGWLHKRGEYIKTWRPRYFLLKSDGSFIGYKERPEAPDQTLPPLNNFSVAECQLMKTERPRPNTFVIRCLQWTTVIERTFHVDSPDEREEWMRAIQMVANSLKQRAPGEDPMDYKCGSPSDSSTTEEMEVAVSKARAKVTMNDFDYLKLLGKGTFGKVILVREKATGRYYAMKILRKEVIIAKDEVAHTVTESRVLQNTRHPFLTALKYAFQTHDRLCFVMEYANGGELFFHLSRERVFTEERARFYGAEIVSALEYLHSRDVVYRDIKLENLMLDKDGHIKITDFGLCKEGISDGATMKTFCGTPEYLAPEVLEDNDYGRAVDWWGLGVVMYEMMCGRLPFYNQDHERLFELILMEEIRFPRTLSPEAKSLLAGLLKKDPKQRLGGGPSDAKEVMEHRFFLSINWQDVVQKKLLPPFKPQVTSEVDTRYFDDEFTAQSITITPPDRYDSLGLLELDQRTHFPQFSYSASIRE
Assay: Live cell AKT2 target engagement by NanoBRET competitive probe displacement in HEK293 cells
Type: binding
Conditions: NanoBRET live cell target engagement, HEK293 cells, 2 h at 37° C.; read-out: AKT2 IC50
pIC50: −log10 of the molar value.
Reported pIC50 values follow for various compounds

# Compound, Value relation sign, pIC50
rows = [
    ("COc1cc(C(=O)N[C@H]2CCc3cc(-n4c(-c5cccnc5N)nc5ccc(-n6cccn6)nc54)ccc32)cnn1", "=", 7.65),
    ("Nc1ncccc1-c1nc2ccc(-n3cccn3)nc2n1-c1ccc2c(c1)CC[C@@H]2NC(=O)c1ccn(C(F)F)n1", "=", 6.37),
    ("Cc1ncc(F)cc1C(=O)N[C@H]1CCc2cc(-n3c(-c4cccnc4N)nc4ccc(-n5nccn5)nc43)ccc21", "=", 6.26),
    ("Nc1ncccc1-c1nc2ccc(-n3cccn3)nc2n1-c1ccc2c(c1)CCC2n1cccn1 (stereo not shown)", "=", 5.37),
    ("Nc1ncccc1-c1nc2ccc(-n3cccn3)nc2n1-c1ccc2c(c1)CC[C@@H]2NC1CCN(C(=O)c2cccnc2)CC1", "<", 5.00),
    ("Nc1ncccc1-c1nc2ccc(-n3cccn3)nc2n1-c1ccc2c(c1)CC[C@@H]2NC(=O)c1ccc(C(F)(F)F)nc1", "=", 7.30),
    ("CC(C)(O)c1cn([C@H]2CCc3cc(-n4c(-c5cccnc5N)nc5ccc(-n6cccn6)nc54)ccc32)nn1", "=", 5.18),
]
